assay: Selectivity ratio of IC50 for chymotrypsin like activity of 26S proteasome beta 5 subunit (unknown origin) to IC50 for recombinant ovine lung calpain 2 protease
Residues, ends and D or L forms follow the SMILES beside them. *: point of attachment. Cbz = O=C(OCc1ccccc1)*
Assign met to entries whose Ratio IC50 meets or exceeds 10; assign not met to the rest.

Would you please look over these solved cases?
CC(C)C[C@@H](C=O)NC(=O)[C@H](CC(C)C)NC(=O)[C@H](Cc1ccccc1)NC(=O)OCc1ccccc1 (Cbz-Phe-Leu-Leu-aldehyde) : met
CC(C)C[C@H](NC(=O)OCc1ccccc1)C(=O)N[C@@H](CC(C)C)C(=O)N[C@@H](CC(C)C)C(=O)[C@@]1(C)CO1 : not met
C#CCOc1ccc(C[C@@H](C=O)NC(=O)[C@H](CC(C)C)NC(=O)[C@H](Cc2ccccc2)NC(=O)OCc2ccccc2)cc1 : met
CC(C)C[C@@H](C=O)NC(=O)[C@H](CO)NC(=O)[C@H](CC(C)C)NC(=O)OCc1ccccc1 (Cbz-Leu-Ser-Leu-aldehyde) : not met

Consider the additional compound presented here.
// inclusive: Ratio IC50 at least 10? input: CC(C)C[C@H](NC(=O)[C@H](Cc1ccccc1)NC(=O)OCc1ccccc1)C(=O)N[C@H](C=O)Cc1ccccc1 (Cbz-Phe-Leu-Phe-aldehyde)
met
